system: Male Swiss mice; assay: Hot plate method, analgesic activity in mice; type: in vivo; settings: hot plate, 15 mg/kg, intraperitoneal adm., n = 20
PROPERTY_LABEL: % response time increase (%)
Give bare numbers, in %.

Record excerpt, results attached:
INSERT INTO measurements (molecule, val) VALUES
  ('CN(C)CC1CCCCC1(O)c1cccc(OC(=O)C2CCn3c(C(=O)c4ccccc4)ccc32)c1 (stereo not drawn) [EXAMPLE 3]', 416),
  ('CN(C)CC1=C(c2cccc(OC(=O)c3ccccc3O)c2)CCCC1 [EXAMPLE 7]', 634),
  ('CC(C)Cc1ccc(C(C)C(=O)Oc2cccc(C3=C(CN(C)C)CCCC3)c2)cc1 (stereo not drawn) [EXAMPLE 4]', 333);

Return reported % response time increase values for all items listed beneath this line.
1. CN(C)CC1CCCCC1(O)c1cccc(OC(=O)c2ccccc2O)c1 (stereo not drawn) [EXAMPLE 6]
2. COc1cccc(C2(O)CCCCC2CN(C)C)c1 (single isomer, unassigned) [Tramadol, reference compound]
3. CC(C)Cc1ccc(C(C)C(=O)Oc2cccc(C3(O)CCCCC3CN(C)C)c2)cc1 (stereo not drawn) [EXAMPLE 1]
4. CN(C)CC1CCCCC1(O)c1cccc(OC(=O)c2ccccc2OC(=O)N(C)C)c1 (stereo not drawn) [EXAMPLE 8]
5. COc1ccc2cc(C(C)C(=O)Oc3cccc(C4(O)CCCCC4CN(C)C)c3)ccc2c1 (stereo not drawn) [EXAMPLE 2]
6. COc1ccc2cc(C(C)C(=O)Oc3cccc(C4=C(CN(C)C)CCCC4)c3)ccc2c1 (stereo not drawn) [EXAMPLE 5]

A.
1: 546; 2: 218; 3: 568; 4: 327; 5: 539; 6: 356
